# Assay system: T1, hu-IL-36β (human IL-36β, N-terminally truncated active form R5-E157) (human)
# T1 construct: Purification tag cleaved off; Biotinylated where captured; also called hu-IL-36b
# T1 chain: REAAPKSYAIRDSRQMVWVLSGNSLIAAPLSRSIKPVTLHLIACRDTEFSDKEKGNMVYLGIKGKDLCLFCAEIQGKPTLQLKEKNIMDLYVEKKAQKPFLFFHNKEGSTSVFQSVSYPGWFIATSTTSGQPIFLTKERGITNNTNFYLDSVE
# Protocol text: SPR (Biacore 8K), biotinylated hu-IL-36β captured on CAP chip, Fab injected, 37°C
Under this convention, T denotes kon strictly below 400000 M⁻¹ s⁻¹ and F denotes kon at or above 400000 M⁻¹ s⁻¹.

{"Binder": "mAb6_2.10 Fab (Fab, V domains shown, Recombinant Fab with 8xHis tag (Expi293F)) VH: ELQLQESGPGLVKPSETLSLTCTVSGGSITSSNYYWGWIRQPPGKGLEWIGSIDYTGSTYYQPSLKSRVTISVDTSKNQFSLKLSSVTAADTAVYYCARGNYYETYLGFDVWGQGTLVTVSS VL: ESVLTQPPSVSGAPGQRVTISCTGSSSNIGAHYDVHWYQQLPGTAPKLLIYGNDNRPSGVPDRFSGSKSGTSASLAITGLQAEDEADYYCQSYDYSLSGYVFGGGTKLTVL", "Cat": "F"}
{"Binder": "mAb6_2.5 Fab (Fab, V domains shown, Recombinant Fab with 8xHis tag (Expi293F)) VH: ELQLQESGPGLVKPSETLSLTCTVSGGSITASNYYWGWIRQPPGKGLEWIGSIDYTGSTYYEPSLKSRVTISVDTSKNQFSLKLSSVTAADTAVYYCATGSYYETYLGFDVWGQGTLVTVSS VL: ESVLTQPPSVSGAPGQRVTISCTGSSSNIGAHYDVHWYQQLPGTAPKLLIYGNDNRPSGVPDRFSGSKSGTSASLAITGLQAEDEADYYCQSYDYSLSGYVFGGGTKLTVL", "Cat": "F"}
{"Binder": "mAb6_2.6 Fab (Fab, V domains shown, Recombinant Fab with 8xHis tag (Expi293F)) VH: ELQLQESGPGLVKPSETLSLTCTVSGGSITASNYYWGWIRQPPGKGLEWIGSIDYTGSTYYEPSLKSRVTISVDTSKNQFSLKLSSVTAADTAVYYCATGNYYETYLGFDVWGQGTLVTVSS VL: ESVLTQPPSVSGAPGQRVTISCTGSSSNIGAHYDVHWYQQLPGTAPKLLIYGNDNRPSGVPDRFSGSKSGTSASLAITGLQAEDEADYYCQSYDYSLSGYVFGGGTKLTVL", "Cat": "F"}
{"Binder": "mAb6_2.9 Fab (Fab, V domains shown, Recombinant Fab with 8xHis tag (Expi293F)) VH: ELQLQESGPGLVKPSETLSLTCTVSGGSITSSNYYWGWIRQPPGKGLEWIGSIDYTGSTYYNPSLKSRVTISVDTSKNQFSLKLSSVTAADTAVYYCATGKYYETYLGFDVWGQGTLVTVSS VL: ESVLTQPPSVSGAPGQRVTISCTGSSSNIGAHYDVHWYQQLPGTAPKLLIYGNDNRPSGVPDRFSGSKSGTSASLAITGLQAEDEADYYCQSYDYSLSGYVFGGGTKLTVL", "Cat": "T"}
{"Binder": "mAb6_2.7 Fab (Fab, V domains shown, Recombinant Fab with 8xHis tag (Expi293F)) VH: ELQLQESGPGLVKPSETLSLTCTVSGGSITASNTYWGWIRQPPGKGLEWIGSIDYTGSTYYNPSLKSRVTISVDTSKNQFSLKLSSVTAADTAVYYCATGKYYETYLGFDVWGQGTLVTVSS VL: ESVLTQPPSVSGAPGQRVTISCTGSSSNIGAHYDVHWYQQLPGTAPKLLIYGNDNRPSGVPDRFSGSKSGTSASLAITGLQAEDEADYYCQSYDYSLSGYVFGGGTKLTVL", "Cat": "T"}
{"Binder": "mAb6_2.8 Fab (Fab, V domains shown, Recombinant Fab with 8xHis tag (Expi293F)) VH: ELQLQESGPGLVKPSETLSLTCTVSGGSITASNYYWGWIRQPPGKGLEWIGSIDYTGSTYYNPSLKSRVTISVDTSKNQFSLKLSSVTAADTAVYYCASGKYYETYLGFDVWGQGTLVTVSS VL: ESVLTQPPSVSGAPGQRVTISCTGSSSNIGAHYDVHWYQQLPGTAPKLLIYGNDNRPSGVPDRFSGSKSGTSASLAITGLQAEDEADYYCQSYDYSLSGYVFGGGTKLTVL", "Cat": "T"}
